# study-conditions: [M+Na]+; instrument: DT; stepped-field
property: collision cross section (N2) (Å²)

[ask] Give reported collision cross section (N2) value for O=C[C@@H](O)[C@H](O)[C@H](O)CO
[reply] 143.27

[ask] Please list collision cross section (N2) recorded for the molecule CC(=O)NCCCC(=O)O
[reply] 138.57

[ask] Given O=c1[nH]c(=O)c2[nH]cnc2[nH]1 , respond with its collision cross section (N2).
[reply] 152.65

[ask] Give a short answer stating reported collision cross section (N2) for O=C(O)/C=C(/CC(=O)O)C(=O)O [Cis-Aconitic Acid] .
[reply] 146.78

[ask] Kindly indicate its recorded collision cross section (N2). Item: Cc1cn([C@@H]2O[C@H](CO)[C@@H](O)[C@H]2O)c(=O)nc1N
[reply] 168.97

[ask] Indicate its recorded collision cross section (N2); the molecule in question is CCCCC/C=C\C=C\C(O)CCCCCCCC(=O)O (centres undefined)
[reply] 189.14

[ask] Provide only the value of recorded collision cross section (N2) for OC1OC[C@@H](O[C@@H]2OC[C@@H](O)[C@H](O)[C@H]2O)[C@H](O)[C@H]1O (some centres undefined)
[reply] 167.4

[ask] Give the value of collision cross section (N2) reported for the following: C[N+](C)(C)CCOP(=O)([O-])OC[C@H](O)CO
[reply] 161.8

[ask] Indicate the recorded collision cross section (N2) value for this molecule: NC(=O)c1cccnc1 [Nicotinamide]
[reply] 137.3
